Values from patent US20240360146A1

biological target: BTK (Homo sapiens, UniProt Q06187); construct: endogenous in cells; host or cells: Mino cells; assay: BTK degradation activity test in Mino cells; format: cell-based; conditions: 16 h incubation, Western blot or Elisa
Sequence (Q06187 whole entry): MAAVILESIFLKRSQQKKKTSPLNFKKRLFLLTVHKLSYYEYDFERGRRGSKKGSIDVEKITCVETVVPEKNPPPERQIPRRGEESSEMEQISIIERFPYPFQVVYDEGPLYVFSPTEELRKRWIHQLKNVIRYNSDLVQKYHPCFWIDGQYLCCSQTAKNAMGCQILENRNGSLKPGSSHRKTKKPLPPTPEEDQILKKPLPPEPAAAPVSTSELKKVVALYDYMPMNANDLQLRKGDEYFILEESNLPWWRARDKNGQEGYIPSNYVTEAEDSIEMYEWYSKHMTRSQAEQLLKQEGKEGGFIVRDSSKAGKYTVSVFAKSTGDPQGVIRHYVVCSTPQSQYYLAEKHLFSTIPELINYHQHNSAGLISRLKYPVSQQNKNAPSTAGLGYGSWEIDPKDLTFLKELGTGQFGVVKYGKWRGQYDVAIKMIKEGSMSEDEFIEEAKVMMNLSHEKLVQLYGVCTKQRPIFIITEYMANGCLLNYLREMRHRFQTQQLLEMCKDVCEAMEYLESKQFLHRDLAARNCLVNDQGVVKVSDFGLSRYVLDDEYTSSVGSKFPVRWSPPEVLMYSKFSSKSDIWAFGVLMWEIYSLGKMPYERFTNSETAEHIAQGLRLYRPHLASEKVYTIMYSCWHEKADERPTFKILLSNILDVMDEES
ATTRIBUTE_MEASURED: DC50

Examples with their reported DC50 follow.
NC(=O)c1ncc(N2CCCC(N3CCN(C4CCCC4)C3=O)C2)nc1Nc1ccc(C2CCN(C3CN(c4ccc5c(c4)C(=O)N(C4CCC(=O)NC4=O)C5=O)C3)CC2)cc1 (centres unmarked)
> 1 nM
CC1(c2ccc(Nc3nc(N4CCCC(N5CCN(C6CCCCC6)C5=O)C4)cnc3C(N)=O)cc2)CCN(C2CN(c3ccc4c(c3)C(=O)N(C3CCC(=O)NC3=O)C4=O)C2)CC1 (centres unmarked)
< 1 nM
Cc1cc(C#CCN2CCN(c3ccc(Nc4nc(N5CCC[C@@H](N6CCN(C)C6=O)C5)nnc4C(N)=O)cc3F)CC2)ccc1C(=O)NC1CCC(=O)NC1=O (some centres unmarked)
< 1 nM
CN1CCN([C@@H]2CCCN(c3nnc(C(N)=O)c(Nc4ccc(C5CCN(C[C@H]6CCN(c7ccc8c(c7)C(=O)N(C7CCC(=O)NC7=O)C8=O)C6)CC5)c(F)c4)n3)C2)C1=O (some centres unmarked)
< 1 nM

CN1CCN([C@@H]2CCCN(c3nnc(C(N)=O)c(Nc4ccc(N5CCN(CC6CCN(c7ccc(NC8CCC(=O)NC8=O)c8ocnc78)CC6)CC5)c(F)c4)n3)C2)C1=O (some centres unmarked) has a reported DC50 of < 1 nM

---

Catalogue of compounds with associated DC50
target: BTK (Homo sapiens); construct: endogenous in cells; host or cells: Mino cells; assay: BTK degradation activity test in Mino cells; assay type: cell-based; conditions: 16 h incubation, Western blot or Elisa

Examples with their reported DC50 follow.
CN1CCN([C@@H]2CCCN(c3nnc(C(N)=O)c(Nc4ccc(N5CCN(CC6CCN(c7ccc(C(=O)NC8CCC(=O)NC8=O)nc7)CC6)CC5)c(F)c4)n3)C2)C1=O (stereo partly drawn)
< 1 nM
CN1CCN([C@@H]2CCCN(c3nnc(C(N)=O)c(Nc4ccc(N5CCN(CC6CCN(c7ccc(N8CCC(=O)NC8=O)cn7)CC6)CC5)c(F)c4)n3)C2)C1=O
< 1 nM

Now consider a different compound.
CC1(c2ccc(Nc3nc(N4CCCC(N5CCN(C6COC6)C5=O)C4)cnc3C(N)=O)cc2)CCN(C2CN(c3ccc4c(c3)CN(C3CCC(=O)NC3=O)C4=O)C2)CC1 (stereo not drawn) has a reported DC50 of < 1 nM

---

target: BTK (Homo sapiens); construct: endogenous in cells; host or cells: Mino cells; experiment: BTK degradation activity test in Mino cells; type: cell-based; conditions: 16 h incubation, Western blot or Elisa
ATTRIBUTE_MEASURED: DC50

CC1(c2ccc(Nc3nc(N4CCCC(N5CCN(c6ccccc6)C5=O)C4)nnc3C(N)=O)cc2)CCN(C2CCN(c3ccc4c(c3)C(=O)N(C3CCC(=O)NC3=O)C4=O)CC2)CC1 (stereo not shown) [Compound 091]
> 1 nM
Cc1cc(N2CCC(CN3CCC(c4ccc(Nc5nc(N6CCC[C@@H](N7CCN(C)C7=O)C6)nnc5C(N)=O)c(CO)c4)CC3)CC2)ccc1N1CCC(=O)NC1=O [Compound 238]
< 1 nM
CN1C(=O)N(C2CCCN(c3cnc(C(N)=O)c(Nc4ccc(C5(C)CCN(C6CN(c7ccc8c(c7)C(=O)N(C7CCC(=O)NC7=O)C8=O)C6)CC5)cc4)n3)C2)C2CCCC21 (stereo not shown) [Compound 008]
< 1 nM
CN1CCN([C@@H]2CCCN(c3nnc(C(N)=O)c(Nc4ccc(C5CCN(CC6(C)CCN(c7ccc8c(c7)C(=O)N(C7CCC(=O)NC7=O)C8=O)C6)CC5)cc4)n3)C2)C1=O (stereo partly shown) [Compound 120]
< 1 nM
Cc1cc(N2CCC(CN3CCC(c4ccc(Nc5c(F)c(N6CCC[C@@H](N7CCN(C)C7=O)C6)c(F)c(F)c5C(N)=O)cc4F)CC3)CC2)ccc1N1CCC(=O)NC1=O [Compound 242]
< 1 nM

CN1CCN(C2CCCN(c3nnc(C(N)=O)c(Nc4ccc5c(c4)CCN(CC4CCN(c6ccc7c(c6)C(=O)N(C6CCC(=O)NC6=O)C7=O)CC4)C5)n3)C2)C1=O (stereo not shown) [Compound 081] has a reported DC50 of < 1 nM

CN1CCN([C@@H]2CCCN(c3nnc(C(N)=O)c(Nc4ccc(C5CCN(CC6CCN(c7ccc8c(c7)C(=O)N(C7CCC(=O)NC7=O)C8=O)C6)CC5)cc4)n3)C2)C1=O (stereo partly shown) [Compound 124] has a reported DC50 of < 1 nM

NC(=O)c1ncc(N2CCCC(N3CCN(C4CCCC4)C3=O)C2)nc1Nc1ccc(C(=O)C2CCN(CC3CCN(c4ccc5c(c4)C(=O)N(C4CCC(=O)NC4=O)C5=O)CC3)CC2)cc1 (stereo not shown) [Compound 028] has a reported DC50 of > 1 nM

CN1CCN(C2CC3CC2N(c2nnc(C(N)=O)c(Nc4ccc(C5CCN(CC6CCN(c7cc8c(cc7F)C(=O)N(C7CCC(=O)NC7=O)C8=O)CC6)CC5)cc4)n2)C3)C1=O (stereo not shown) [Compound 111] has a reported DC50 of < 1 nM

CN1CCN([C@@H]2CCCN(c3nnc(C(N)=O)c(Nc4ccc(N5CCN(CC6CCN(c7ccc(C(=O)NC8CCC(=O)NC8=O)nc7)C6)CC5)c(F)c4)n3)C2)C1=O (stereo partly shown) [Compound 173] has a reported DC50 of < 1 nM
